The values you see were collected from patent US9452980B2.

- STUDY TARGET: rat TAAR1 (Rattus norvegicus (Rat), UniProt Q923Y9)
- Sequence (Q923Y9 whole entry): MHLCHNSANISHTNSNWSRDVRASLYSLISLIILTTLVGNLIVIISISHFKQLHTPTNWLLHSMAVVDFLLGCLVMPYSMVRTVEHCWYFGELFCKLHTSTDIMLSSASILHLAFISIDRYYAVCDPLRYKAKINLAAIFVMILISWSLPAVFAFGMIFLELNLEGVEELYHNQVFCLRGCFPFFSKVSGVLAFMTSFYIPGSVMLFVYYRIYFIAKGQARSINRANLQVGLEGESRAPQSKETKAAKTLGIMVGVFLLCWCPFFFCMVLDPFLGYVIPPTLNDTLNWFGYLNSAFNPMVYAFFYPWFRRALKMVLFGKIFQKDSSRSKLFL
- ASSAY REMARKS: Radioligand binding assay on rat TAAR1
- RUN CONDITIONS: rat TAAR1, HEK-293 membranes, second value of cell mouse/rat; read-out: Ki (μM) rat
Counter-ions that a name gives are not always drawn.
I'd be grateful if you could share measured Ki for these entries.
Write the number in µM without appending the unit.

[in] rat TAAR1 (Rattus norvegicus (Rat), UniProt Q923Y9) / Ki / Cc1ccc(NC(=O)Nc2ccc(C3CNCCO3)cc2)cc1 (racemic) [Example 293, hydrochloride] : value?
[out] 0.0014

[in] rat TAAR1 (Rattus norvegicus (Rat), UniProt Q923Y9) / Ki / COc1ccc(C(=O)Nc2ccc(C3CCNC3)cc2)c(F)c1 (racemic) [Example 88, hydrochloride] : value?
[out] 0.102

[in] rat TAAR1 (Rattus norvegicus (Rat), UniProt Q923Y9) / Ki / O=C(Nc1ccc([C@@H]2CCCNC2)cc1)c1cnc(Cl)cn1 [Example 238, hydrochloride] : value?
[out] 0.0056

[in] rat TAAR1 (Rattus norvegicus (Rat), UniProt Q923Y9) / Ki / O=C(Nc1ccc(C2CCNC2)cc1)c1ncc(F)cc1F (racemic) [Example 75, hydrochloride] : value?
[out] 1.48

[in] rat TAAR1 (Rattus norvegicus (Rat), UniProt Q923Y9) / Ki / O=C(Nc1ccc([C@@H]2CCCNC2)cc1)OC1Cc2ccccc2C1 [Example 258, 2,2,2-trifluoroacetate] : value?
[out] 0.0062

[in] rat TAAR1 (Rattus norvegicus (Rat), UniProt Q923Y9) / Ki / Cc1ccc(C(=O)Nc2ccc(C3CCNC3)cc2)cc1 (racemic) [Example 182, hydrochloride] : value?
[out] 0.0025

[in] rat TAAR1 (Rattus norvegicus (Rat), UniProt Q923Y9) / Ki / O=C(Nc1ccc([C@@H]2CNC[C@@H]2F)cc1)c1ccc(Cl)cc1 (racemic) [Example 69, hydrochloride] : value?
[out] 0.023
